TARGET_OR_SYSTEM: T1, mutant human CD20 #1 (Y77F) (human, UniProt P11836 1-297)
T1 construct: Human residues replaced by mouse residues; stably expressed on MG87 cells
T1 sequence: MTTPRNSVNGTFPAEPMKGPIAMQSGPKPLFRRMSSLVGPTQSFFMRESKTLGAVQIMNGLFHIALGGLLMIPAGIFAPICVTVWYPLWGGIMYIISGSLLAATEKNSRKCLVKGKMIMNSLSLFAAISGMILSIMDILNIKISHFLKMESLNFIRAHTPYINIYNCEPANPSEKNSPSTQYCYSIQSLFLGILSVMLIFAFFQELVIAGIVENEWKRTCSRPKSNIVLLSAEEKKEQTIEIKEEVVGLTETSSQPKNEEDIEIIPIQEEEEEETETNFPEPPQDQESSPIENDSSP
PROTOCOL_NOTES: FACS, mutant-hCD20 MG87 cells; 100%=best antibody

>  <BINDER>
3B9-10 (antibody, V domains shown, Fully human IgG, constant region not specified; also called 3B9-10N) VH: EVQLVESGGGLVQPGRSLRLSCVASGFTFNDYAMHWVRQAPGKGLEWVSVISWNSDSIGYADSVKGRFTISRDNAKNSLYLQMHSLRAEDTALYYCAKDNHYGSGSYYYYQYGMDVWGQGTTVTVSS VL: EIVMTQSPATLSVSPGERATLSCRASQSVSSNLAWYQQKPGQAPRLLIYGTSTRATGIPARFSGSGSGTEFTLTISSLQSEDFAVYYCQQYNNWPLTFGGGTKVEIK

>  <Percent of Binding to Mutant Human CD20>
56%

$$$$
>  <BINDER>
9H4-12 (antibody, V domains shown, Fully human IgG, constant region not specified; also called 9H4-12N) VH: EVQLVESGGGLVQPGRSLRLSCAASGFTFDDYAMHWVRQVPGKGLEWVSGISWNSGSIGYADSVKGRFTISRDNAKNSLYLQMNSLRAEDTALYYCAKDMGYGNYYHYGMDVWGQGTTVTVSS VL: DIVLTQSPATLSLSPGERATLSCRASQSVSSYLAWYQQKPGQAPRLLICDASHRATRIPARFSGSGSGTDFTLTISSLEPEDFAVYYCQQRSNWPITFGQGTRLEIK

>  <Percent of Binding to Mutant Human CD20>
19%

$$$$
>  <BINDER>
10F2-13 (antibody, V domains shown, Fully human IgG, constant region not specified; also called 10F2-13N; ab 10F2-13) VH: EEQLVESGGDLVQPGRSLRLSCAASGFTFHDYTMHWVRQAPGKGLEWVSGISWNSGSLGYADSVKGRFTISRDNAKKSLYLQMNSLRAEDTALYYCAKDPSYGSGSYHSYYGMDVWGQGTTVTVSS VL: EIVLTQSPATLSLSPGERATLSCWASQSISRYLVWYQQKCGQAPRLLIYEASKRATGIPVRFSGSGSGTDFTLTISSLESEDFAVYYCQQRFNWPLTFGGGTKVEIK

>  <Percent of Binding to Mutant Human CD20>
79%

$$$$
>  <BINDER>
6F6-1 (antibody, V domains shown, Fully human IgG, constant region not specified; also called 6F6-1N) VH: AVQLVESGGGLVQPGRSLRLSCAASGFTFRDYAMHWVRQGPGKGLEWVSGISWNTDYIGYADSVKGRFTISRDNAKNSLYLQMNSLRPEDTALYYCAKDARYGRDNYYGMDVWGQGTTVTVSS VL: EIVMTQSPATLSVSPGERATLSCRASQSVSHNLAWYQQKPGQAPRLLIYGAYTRATGIPDRFSGTGSGTEFTLTISSLQSEDFAVFYCQQYNNWPLTFGGGTKVEIK

>  <Percent of Binding to Mutant Human CD20>
100%

$$$$
>  <BINDER>
9C11-14 (antibody, V domains shown, Fully human IgG, constant region not specified; also called 9C11-14N) VH: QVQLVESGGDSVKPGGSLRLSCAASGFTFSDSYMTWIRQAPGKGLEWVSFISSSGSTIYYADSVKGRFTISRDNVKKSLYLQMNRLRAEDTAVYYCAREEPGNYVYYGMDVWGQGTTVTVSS VL: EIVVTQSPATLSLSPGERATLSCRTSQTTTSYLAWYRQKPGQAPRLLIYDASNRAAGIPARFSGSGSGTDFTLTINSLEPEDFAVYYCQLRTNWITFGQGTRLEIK

>  <Percent of Binding to Mutant Human CD20>
89%

$$$$

This collection of values is drawn from patent US20090035322A1.
